FYI, the data here is from patent US9790209B2.

Test system: PBMCs
Method Description: LPS-induced TNFα/IL-8 release in PBMC cells
Assay type: cell-based
Condition Parameters: Homo sapiens, LPS-stimulated PBMCs, IL-8, read-out: IC50 Values for Inhibition of Cytokine Release PBMCs IL-8
Entries whose IC50 is below 1 nM take MET; entries at or above 1 nM take NOT MET.

* C#CC(C)(C)c1cc(NC(=O)Nc2ccc(Oc3ccnc(Nc4cc(OC)cc(OCCN5CCOCC5)c4)n3)c3ccccc23)n(-c2ccc(C)cc2)n1 | NOT MET
* C#CC(C)(C)c1cc(NC(=O)Nc2ccc(Oc3ccnc(Nc4ccccc4)c3)c3ccccc23)n(-c2ccc(C)cc2)n1 | NOT MET
* C#Cc1cc(Nc2nccc(Oc3ccc(NC(=O)Nc4cc(C(C)(C)C#C)nn4-c4ccc(C)cc4)c4ccccc34)n2)cc(C(=O)NCCN2CCOCC2)c1 | MET
* C#CC(C)(C)c1cc(NC(=O)Nc2ccc(Oc3ccnc(Nc4cc(C(=O)NCCN5CCOCC5)cc(C(F)(F)F)c4)n3)c3ccccc23)n(-c2ccc(C)cc2)n1 | NOT MET

Task: Hello, is IC50 of the following compound strictly smaller than 1 nM? `C#CC(C)(C)c1cc(NC(=O)Nc2ccc(Oc3ccnc(Nc4cccc(OCCN5CCOCC5)n4)n3)c3ccccc23)n(-c2ccc(C)cc2)n1`
Output: NOT MET

---

Recorded below: pIC50, system UniProt:P49840.
Sequence (P49840 whole entry): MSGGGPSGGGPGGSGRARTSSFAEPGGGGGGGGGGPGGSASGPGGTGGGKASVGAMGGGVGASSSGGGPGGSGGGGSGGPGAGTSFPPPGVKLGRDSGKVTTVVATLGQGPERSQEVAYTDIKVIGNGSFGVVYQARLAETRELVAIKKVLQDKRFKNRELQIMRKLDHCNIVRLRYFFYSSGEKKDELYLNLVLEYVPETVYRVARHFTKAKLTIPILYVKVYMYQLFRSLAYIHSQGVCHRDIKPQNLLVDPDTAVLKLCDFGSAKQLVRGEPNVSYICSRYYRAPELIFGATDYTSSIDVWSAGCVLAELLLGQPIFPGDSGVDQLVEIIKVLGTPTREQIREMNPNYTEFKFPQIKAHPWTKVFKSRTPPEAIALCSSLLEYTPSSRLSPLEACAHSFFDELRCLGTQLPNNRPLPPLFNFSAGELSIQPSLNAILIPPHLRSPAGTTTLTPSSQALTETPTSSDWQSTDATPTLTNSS
Just the number, please; pIC50 means minus log10 of the concentration in mol/L.

Consider the following illustrative entries.
* C#CC(C)(C)c1cc(NC(=O)Nc2ccc(Oc3ccnc(Nc4cccc(OCCN5CCOCC5)c4)n3)c3ccccc23)n(-c2ccc(C)cc2)n1 | 6.22
* C#Cc1cc(Nc2nccc(Oc3ccc(NC(=O)Nc4cc(C(C)(C)C#C)nn4-c4ccc(C)cc4)c4ccccc34)n2)cc(C(=O)NCCN2CCOCC2)c1 | 5.45
* C#CC(C)(C)c1cc(NC(=O)Nc2ccc(Oc3ccnc(Nc4cccc(OCCN(C)C)n4)n3)c3ccccc23)n(-c2ccc(C)cc2)n1 | 5.75

Task: API: value(readout= pIC50, system= UniProt:P49840, query= `C#CC(C)(C)c1cc(NC(=O)Nc2ccc(Oc3ccnc(Nc4cc(OC)cc(OCCOCCOCCOC)c4)n3)c3ccccc23)n(-c2ccc(C)cc2)n1` )
Output: 5.19

---

Tested on: PBMCs
Method Description: IL-2 and IFN gamma release in CD3/CD28 stimulated PBMC cells
Type: cell-based
Condition Parameters: Homo sapiens, IL-2, read-out: IC50 Values for Inhibition of Cytokine Release PBMCs IL-2
Criterion: IC50 strictly less than 70 nM. Met: 1.0. Not met: 0.0.

Field: example entries. Status: answers known.
• C#CC(C)(C)c1cc(NC(=O)Nc2ccc(Oc3ccnc(Nc4cc(OC)cc(OCCOCCOCCOC)c4)n3)c3ccccc23)n(-c2ccc(C)cc2)n1 [Example 13] = 1.0
• C#CC(C)(C)c1cc(NC(=O)Nc2ccc(Oc3ccnc(Nc4cccc(OCCN(C)C)n4)n3)c3ccccc23)n(-c2ccc(C)cc2)n1 [Example 10] = 1.0
• C#CC(C)(C)c1cc(NC(=O)Nc2ccc(Oc3ccnc(Nc4ccc5c(c4)NC(=O)C5)n3)c3ccccc23)n(-c2ccc(C)cc2)n1 [Example 3] = 1.0
• C#CC(C)(C)c1cc(NC(=O)Nc2ccc(Oc3ccnc(Nc4cc(C)c5[nH]ncc5c4)n3)c3ccccc23)n(-c2ccc(C)cc2)n1 [Example 2] = 1.0

Task: Report whether reported IC50 is lower than 70 nM (strictly) for C#CC(C)(C)c1cc(NC(=O)Nc2ccc(Oc3ccnc(Nc4ccccc4)c3)c3ccccc23)n(-c2ccc(C)cc2)n1 [Example 7]
Output: 0.0

Task: Record C#CC(C)(C)c1cc(NC(=O)Nc2ccc(Oc3ccnc(Nc4cc(C(=O)NCCN5CCOCC5)cc(C(F)(F)F)c4)n3)c3ccccc23)n(-c2ccc(C)cc2)n1 [Example 12] : is its IC50 strictly below 70 nM?
Output: 0.0

Task: Given C#CC(C)(C)c1cc(NC(=O)Nc2ccc(Oc3ccnc(Nc4cc(OC(F)(F)F)cc(C(=O)NCCN5CCOCC5)c4)n3)c3ccccc23)n(-c2ccc(C)cc2)n1 [Example 14] , is recorded IC50 strictly lower than 70 nM?
Output: 0.0
